Just for reference, paper PMC12015462 is where these values come from.

# System: Dictyostelium discoideum
# Method summary: Infection assay: growth of the host amoeba D. discoideum (fluorescence) in infection
# Type: cell-based
# Condition label: 72 h, read-out: median normalized residual growth, Dd in infection
Measured property: activity at 11.1111 µM (%)
Write the value in % as a bare number.

Past entries and their recorded results:
{"Molecule": "Oc1ccc(/C=C/c2cc(O)c3c(c2)O[C@H](c2ccc(O)cc2)[C@H]3c2cc(O)c3c(c2)O[C@H](c2ccc(O)cc2)[C@H]3c2cc(O)c3c(c2)O[C@H](c2ccc(O)cc2O)[C@H]3c2cc(O)cc(O)c2)cc1", "Unit name": "%", "activity at 11.1111 µM": 91}
{"Molecule": "Oc1ccc(/C=C/c2cc(O)c3c(c2)O[C@@H](c2ccc(O)cc2)[C@@H]3c2cc(O)c3c(c2)O[C@H](c2ccc(O)cc2)[C@H]3c2cc(O)cc(O)c2)cc1 [Compound 6, (−)-Gnetin E]", "Unit name": "%", "activity at 11.1111 µM": 88.5}

Consider the molecule shown here: Oc1cc(O)cc([C@H]2c3c(O)cc(/C=C/c4ccc(O)cc4O)cc3O[C@@H]2c2ccc(O)cc2O)c1 (relative stereo) [Compound 10, (−)-Gnetumontanin A] What is its recorded activity at 11.1111 µM?
84.7

Consider the molecule shown here: Oc1ccc(C=Cc2cc(O)cc3c2C(c2cc(O)cc(O)c2)C(c2ccc(O)c4c2OC(c2ccc(O)cc2O)C4c2cc(O)cc(O)c2)O3)cc1 (single isomer, unassigned; (-)) [Compound 11, (−)-Gnetuhainin M] What is its recorded activity at 11.1111 µM?
83

Consider the molecule shown here: Oc1ccc(/C=C/c2cc(O)c3c(c2)O[C@@H](c2ccc(O)cc2O)[C@@H]3c2cc(O)cc(O)c2)cc1 (relative stereo) [Compound 1, (+)-Gnetin D] What is its recorded activity at 11.1111 µM?
80.3

Consider the molecule shown here: Oc1ccc(/C=C/c2cc(O)c3c(c2)O[C@H](c2ccc(O)cc2O)[C@@H]3c2cc(O)cc(O)c2)cc1 (relative stereo) [Compound 2, (+)-Gnetupendin C] What is its recorded activity at 11.1111 µM?
76.8

Consider the molecule shown here: Oc1ccc(/C=C/c2cc(O)c3c(c2)O[C@@H](c2ccc(O)cc2)[C@@H]3c2cc(O)c3c(c2)O[C@@H](c2ccc(O)cc2O)[C@H]3c2cc(O)cc(O)c2)cc1 [Compound 4, (−)-Gnetoline A] What is its recorded activity at 11.1111 µM?
79.5

Consider the molecule shown here: Oc1ccc(/C=C/c2cc(O)c3c(c2)O[C@@H](c2ccc(O)cc2)[C@@H]3c2cc(O)c3c(c2)O[C@H](c2ccc(O)cc2O)[C@H]3c2cc(O)cc(O)c2)cc1 [Compound 5, (−)-Latifolol] What is its recorded activity at 11.1111 µM?
74.5

Consider the molecule shown here: Oc1ccc([C@@H]2Oc3cc(O)ccc3[C@H]3[C@H](c4cc(O)cc(O)c4)c4c(O)cc(O)cc4[C@H]32)cc1 [Compound 9, (−)-Gnemontanin G] What is its recorded activity at 11.1111 µM?
93.8

Consider the molecule shown here: Oc1ccc(/C=C/c2cc(O)c3c(c2)O[C@H](c2ccc(O)cc2)[C@H]3c2cc(O)c3c(c2)O[C@H](c2ccc(O)cc2)[C@H]3c2cc(O)c3c(c2)O[C@H](c2ccc(O)cc2)[C@H]3c2cc(O)cc(O)c2)cc1 What is its recorded activity at 11.1111 µM?
88.6
